- TARGET SYSTEM: Trifunctional purine biosynthetic protein adenosine-3 (Homo sapiens)
- Sequence (whole entry): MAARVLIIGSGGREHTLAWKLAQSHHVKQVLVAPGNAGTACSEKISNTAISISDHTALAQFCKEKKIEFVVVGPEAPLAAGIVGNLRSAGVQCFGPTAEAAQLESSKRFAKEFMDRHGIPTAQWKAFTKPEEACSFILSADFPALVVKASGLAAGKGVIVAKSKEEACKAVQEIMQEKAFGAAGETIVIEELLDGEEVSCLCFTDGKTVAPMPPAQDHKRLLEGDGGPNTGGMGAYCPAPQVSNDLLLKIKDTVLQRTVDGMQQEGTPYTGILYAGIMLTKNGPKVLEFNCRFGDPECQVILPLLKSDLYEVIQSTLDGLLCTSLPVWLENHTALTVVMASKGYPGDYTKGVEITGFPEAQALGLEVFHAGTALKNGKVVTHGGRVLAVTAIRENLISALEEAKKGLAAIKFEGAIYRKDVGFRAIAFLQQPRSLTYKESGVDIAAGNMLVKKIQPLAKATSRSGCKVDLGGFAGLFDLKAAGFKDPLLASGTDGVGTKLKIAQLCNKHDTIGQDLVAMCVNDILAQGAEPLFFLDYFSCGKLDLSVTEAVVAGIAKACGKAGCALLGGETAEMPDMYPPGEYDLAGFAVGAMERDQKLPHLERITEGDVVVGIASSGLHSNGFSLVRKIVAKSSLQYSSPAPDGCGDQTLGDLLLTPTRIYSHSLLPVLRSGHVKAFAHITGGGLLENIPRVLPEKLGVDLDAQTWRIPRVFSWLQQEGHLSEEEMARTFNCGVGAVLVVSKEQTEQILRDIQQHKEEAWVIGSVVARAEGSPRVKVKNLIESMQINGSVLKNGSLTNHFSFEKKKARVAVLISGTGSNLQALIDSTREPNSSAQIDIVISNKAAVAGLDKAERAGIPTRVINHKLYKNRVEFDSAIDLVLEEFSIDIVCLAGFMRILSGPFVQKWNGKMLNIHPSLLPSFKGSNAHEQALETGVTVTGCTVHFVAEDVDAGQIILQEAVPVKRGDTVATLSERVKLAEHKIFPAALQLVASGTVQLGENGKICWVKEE
- ASSAY PROCEDURE: In vitro inhibitory activity against Glycinamide ribonucleotide transformylase (GAR Tfase) after 30 min at 250 uM; Not active
Calls of active or inactive are those of the source. The rule behind the calls is not given here.

SMILES: Nc1nc(N)c(CCCNc2cc(F)cc(F)c2[N+](=O)[O-])c(O)n1
inhibition: inactive
//
SMILES: Nc1nc(N)c(CCCNc2cc(F)ccc2[N+](=O)[O-])c(O)n1
inhibition: inactive
//
SMILES: Nc1nc(N)c(CCNc2cc(F)c(F)cc2[N+](=O)[O-])c(O)n1
inhibition: inactive
//
SMILES: Nc1nc(N)c(CCCNc2cc(F)c(F)cc2[N+](=O)[O-])c(O)n1
inhibition: inactive
//
SMILES: Nc1nc(N)c(CCCNc2ccc([N+](=O)[O-])c(F)c2F)c(O)n1
inhibition: inactive

---

- TARGET SYSTEM: Trifunctional purine biosynthetic protein adenosine-3 (Homo sapiens)
- ASSAY PROCEDURE: In vitro inhibitory activity at 250 uM concentration against Glycinamide ribonucleotide transformylase (GAR Tfase) pre-incubation time (6 hr).
// no (0) strictly below 30% in inhibition; yes (1) otherwise

SMILES: COC(=O)c1ccc(CN(CCc2c(N)nc(N)nc2O)c2cc(F)cc(F)c2[N+](=O)[O-])cc1
CATEGORY: no (0)
//
SMILES: COC(=O)c1ccc(CN(CCc2c(N)nc(N)nc2O)c2cc(F)ccc2[N+](=O)[O-])cc1
CATEGORY: no (0)
//
SMILES: COC(=O)c1ccc(CN(CCCc2c(N)nc(N)nc2O)c2cc(F)cc(F)c2[N+](=O)[O-])cc1
CATEGORY: no (0)
//
SMILES: COC(=O)c1ccc(CN(CCc2c(N)nc(N)nc2O)c2cc(F)c([N+](=O)[O-])cc2[N+](=O)[O-])cc1
CATEGORY: no (0)
//
SMILES: COC(=O)c1ccc(CN(CCCc2c(N)nc(N)nc2O)c2cc(F)c([N+](=O)[O-])cc2[N+](=O)[O-])cc1
CATEGORY: no (0)
//
SMILES: Nc1nc(N)c(CCCNc2cc(F)c([N+](=O)[O-])cc2[N+](=O)[O-])c(O)n1
CATEGORY: yes (1)
//
SMILES: Nc1nc(N)c(CCCNc2cc(F)cc(F)c2[N+](=O)[O-])c(O)n1
CATEGORY: yes (1)
//
SMILES: Nc1nc(N)c(CCCNc2cc(F)c(F)cc2[N+](=O)[O-])c(O)n1
CATEGORY: yes (1)
//
SMILES: COC(=O)c1ccc(CN(CCCc2c(N)nc(N)nc2O)c2cc(F)c(F)cc2[N+](=O)[O-])cc1
CATEGORY: no (0)
//
SMILES: COC(=O)c1ccc(CN(CCc2c(N)nc(N)nc2O)c2cc(F)c(F)cc2[N+](=O)[O-])cc1
CATEGORY: no (0)
//
SMILES: COC(=O)c1ccc(CN(CCCc2c(N)nc(N)nc2O)c2ccc([N+](=O)[O-])c(F)c2F)cc1
CATEGORY: yes (1)
//
SMILES: COC(=O)c1ccc(CN(CCCc2c(N)nc(N)nc2O)c2cc(F)ccc2[N+](=O)[O-])cc1
CATEGORY: no (0)
